assay: human hepatoma cell viability loss – ATP luminescence, cytotoxicity control for P. falciparum antimalarial project, primary screen (AID 2303); conditions: HepG2 viability, 24-48 h, at 10 µM, active compounds read high
Classes by inhibition: low bin (below 10%), mid bin (10% to below 40%), high bin (40% or more)

compound | assigned_label
COc1ccc(CCNCCCCCCNCCc2ccc(-c3ccccc3)cc2)cc1OC | high bin
NC(=O)c1cc2nc(Nc3ccc(F)cc3)nc(NC3CCC3)c2[nH]1 | low bin
CCOC(=O)Cn1ccc2c(NCc3ccccc3)nc(C)nc21 | high bin

Query: Lab note: sort `CCOC(=O)c1ccc(OCCOc2ccccc2)cc1` into the matching inhibition band.
Reply: high bin

Query: Field: class (inhibition) — entry: `Cc1[nH]c(C)c(-c2ccc(-c3ccccc3F)nc2)c(=O)c1Cl`
Reply: low bin

Query: Returns: class label. Input: `Cc1ccc(Nc2nc(C)cc(N3CCN(c4ccccc4)CC3)n2)cc1`
Reply: low bin
